These data points were gathered from PubChem BioAssay (NCATS).

- System: CRL-7250
- test.method.notes: Cytotoxic Profiling of Annotated Libraries Using Quantitative High-Throughput Screening (AID 1296008); further: nearly all actives have a fitted effect of over 60% in size
- condition.details: Five cell lines viability, CellTiter-Glo ATP luminescence, 48-72 h
Records with an inconclusive call do not appear. Activity calls are given as the source filed them. The call rests on the fitted dose curve; in most records, active means well fitted inhibition curve with a large enough effect; inconclusive means small, poorly fitted or top-dose-only effect; inactive means flat fitted curve, though single readings scatter.
Labels: active, inactive

| compound | assay.system | label.value |
| --- | --- | --- |
| CCOC(=O)c1cc(C#N)c(N2CCC(C(=O)NS(=O)(=O)Cc3ccccc3)CC2)nc1C | CRL-7250 | inactive |
| CC(=O)O[C@H]1CC(C)(C)CC2[C@@]13[C@H](O)C[C@]1(C)[C@@]2(CCC2[C@@]4(C)CC[C@H](O[C@@H]5OC[C@H](O[C@@H]6O[C@H](CO)[C@@H](O)[C@H](O)[C@H]6O[C@@H]6OC[C@@H](O)[C@H](O)[C@H]6O)[C@H](O)[C@H]5O[C@@H]5O[C@H](CO)[C@@H](O)[C@H](O)[C@H]5O)C(C)(C)C4CC[C@]21C)O[C@@H]3O (some centres not stated) | CRL-7250 | active |
| C=C1C(=O)OC2C1C(O)CC1(C)C(O)CCC(C=O)C21 (configuration not stated) | CRL-7250 | inactive |
| CC(C)S(=O)(=O)NC[C@H](C)c1ccc(NC(=O)c2cc(F)cc(F)c2)cc1 | CRL-7250 | inactive |
| CC1(C)CCCC2(C)C1C(O)C=C(CO)C2(O)CO (configuration not stated) | CRL-7250 | inactive |
| C#CCN(Cc1cc2c(=O)[nH]c(C)nc2cc1Br)c1ccc(C(=O)NCc2cccnc2)cc1 | CRL-7250 | active |
| CC(C)[C@@H]1C(=O)N(S(C)(=O)=O)[C@@H]2CCN(C(=O)/C=C/CN3CCCCC3)[C@H]21 | CRL-7250 | inactive |

###

- System: NIH3T3
- test.method.notes: Cytotoxic Profiling of Annotated Libraries Using Quantitative High-Throughput Screening (AID 1296008); further: nearly all actives have a fitted effect of over 60% in size; on max response: on the % scale 0 is the no-effect control and ±100 the full control effect
- condition.details: Five cell lines viability, CellTiter-Glo ATP luminescence, 48-72 h; stronger effect = lower value
Records with an inconclusive call do not appear.
measurement.name: max response (%)

| compound | assay.system | experimental.result |
| --- | --- | --- |
| COC(=O)C1=CO[C@@H](O[C@@H]2O[C@H](CO)[C@@H](O)[C@H](O)[C@H]2O)C2C1C(=O)C[C@H]2C (some centres not stated) | NIH3T3 | 2.63 |
| O=C1CCC=CC1(O)C(=O)OCc1ccccc1O[C@@H]1O[C@H](CO)[C@@H](O)[C@H](O)[C@H]1O (some centres not stated) | NIH3T3 | -27.2 |
| CNC(=S)NS(=O)(=O)c1cc(CCNC(=O)c2cc(Cl)ccc2OC)ccc1OC | NIH3T3 | -5.29 |
| CCCC1(c2ccccc2)NC(=O)N(CC(=O)N(C)Cc2c(F)cccc2Cl)C1=O (configuration not stated) | NIH3T3 | -2.22 |
| CC(C)(O)C1CCC(C)(C2CCC3(C)C4CCC5C(C)(C(=O)OC6OC(CO)C(O)C(O)C6O)C(O)CC(O)C56CC46CCC23C)O1 (configuration not stated) | NIH3T3 | -1.85 |
| C[C@@H]1O[C@@H](O[C@H]2[C@@H]3C=CO[C@@H](O[C@@H]4O[C@H](CO)[C@@H](O)[C@H](O)[C@H]4O)[C@@H]3[C@@]3(CO)O[C@@H]23)[C@H](OC(=O)/C=C/c2ccccc2)[C@H](O)[C@H]1O | NIH3T3 | -1.15 |
| CC(C)(C)C(=O)CN1C(=O)[C@H](NC(=O)Nc2cccc(C(=O)O)c2)CN(C2CCCCC2)c2ccccc21 | NIH3T3 | 1.3 |
